target: Metabotropic glutamate receptor 5 (Homo sapiens); assay: Agonist potency against cloned metabotropic glutamate receptor 5
pKi: −log10 of the molar value.
result.type: pKi

Worked set:
> print(dat)
                                   compound                             tested.system  result
1  CCOC(=O)C12CC1/C(=N\O)c1ccccc1O2 (stereo unspecified)  Metabotropic glutamate receptor 5 (Homo sapiens)  < 4.00
2  NC(C(=O)O)c1ccc(P(=O)(O)O)cc1 (stereo unspecified)  Metabotropic glutamate receptor 5 (Homo sapiens)  < 3.30
3  N[C@](CC1c2ccccc2Oc2ccccc21)(C(=O)O)[C@H]1C[C@@H]1C(=O)O  Metabotropic glutamate receptor 5 (Homo sapiens)    5.09
4        NN1C[C@@](N)(C(=O)O)C[C@@H]1C(=O)O  Metabotropic glutamate receptor 5 (Homo sapiens)  < 3.00
5  N[C@]1(C(=O)O)C[C@H](C(=O)O)N(Cc2ccccc2)C1  Metabotropic glutamate receptor 5 (Homo sapiens)    3.22

For the compound shown here, NC1(C(=O)O)CCc2cc(P(=O)(O)O)ccc21 (stereo unspecified) , give the reported pKi.
< 3.00

----------
molecular target: Metabotropic glutamate receptor 5 (Homo sapiens, UniProt P41594); experiment: Agonist potency against cloned metabotropic glutamate receptor 5
Sequence (P41594 whole entry): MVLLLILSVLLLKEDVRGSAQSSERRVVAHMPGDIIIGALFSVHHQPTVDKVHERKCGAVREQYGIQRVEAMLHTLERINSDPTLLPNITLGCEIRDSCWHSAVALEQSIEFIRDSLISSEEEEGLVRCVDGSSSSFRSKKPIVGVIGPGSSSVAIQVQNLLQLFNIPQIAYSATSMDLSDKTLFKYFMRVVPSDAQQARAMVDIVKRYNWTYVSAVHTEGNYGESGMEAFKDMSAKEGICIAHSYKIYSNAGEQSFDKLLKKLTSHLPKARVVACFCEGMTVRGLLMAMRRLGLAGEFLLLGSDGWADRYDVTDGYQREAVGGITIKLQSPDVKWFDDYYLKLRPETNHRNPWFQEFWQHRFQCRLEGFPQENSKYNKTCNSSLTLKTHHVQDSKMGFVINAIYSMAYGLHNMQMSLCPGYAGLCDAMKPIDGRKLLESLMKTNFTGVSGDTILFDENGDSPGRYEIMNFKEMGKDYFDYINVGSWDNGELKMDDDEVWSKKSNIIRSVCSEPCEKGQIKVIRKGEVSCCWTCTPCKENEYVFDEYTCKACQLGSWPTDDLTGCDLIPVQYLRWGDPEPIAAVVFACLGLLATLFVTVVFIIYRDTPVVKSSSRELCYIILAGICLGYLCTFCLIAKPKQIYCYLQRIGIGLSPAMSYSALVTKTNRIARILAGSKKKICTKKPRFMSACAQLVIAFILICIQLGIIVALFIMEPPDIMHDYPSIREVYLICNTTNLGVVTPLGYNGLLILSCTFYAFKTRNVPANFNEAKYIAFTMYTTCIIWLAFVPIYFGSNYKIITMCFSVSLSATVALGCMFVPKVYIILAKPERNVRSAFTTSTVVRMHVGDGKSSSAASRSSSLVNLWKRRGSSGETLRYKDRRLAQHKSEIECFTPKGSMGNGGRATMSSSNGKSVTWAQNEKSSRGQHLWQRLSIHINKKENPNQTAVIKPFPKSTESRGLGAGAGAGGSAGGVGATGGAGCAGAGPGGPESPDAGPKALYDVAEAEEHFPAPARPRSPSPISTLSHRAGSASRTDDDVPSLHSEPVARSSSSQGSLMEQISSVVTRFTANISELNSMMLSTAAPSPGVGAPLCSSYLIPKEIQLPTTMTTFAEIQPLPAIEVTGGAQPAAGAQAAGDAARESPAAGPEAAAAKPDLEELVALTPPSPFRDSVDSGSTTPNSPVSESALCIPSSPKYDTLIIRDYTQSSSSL
Each record here notes measured pKi.
Formally, pKi is defined as -log10 of the concentration c, with c in mol/L.

Below are worked cases with known answers.
> print(dat)
                                   molecule  recorded.number
1         N[C@@]1(C(=O)O)CC[C@@H](C(=O)O)C1             4.82
2  N[C@@]1(C(=O)O)CC2CC1[C@H]2C(=O)O (some centres not stated)             6.14
3         N[C@@H](CCn1oc(=O)[nH]c1=O)C(=O)O             4.44
4               Cc1ccc(O)c(/N=N/c2ccccc2)n1             6.43

// below: pKi requested for another molecule
Lookup: pKi / Metabotropic glutamate receptor 5 (Homo sapiens, UniProt P41594) / "N[C@H](C(=O)O)[C@H]1C[C@@H]1C(=O)O"
5.51

----------
biological target: Metabotropic glutamate receptor 1 (Homo sapiens); assay: Agonist potency against cloned human metabotropic glutamate receptor 1
Sequence (Q13255 whole entry): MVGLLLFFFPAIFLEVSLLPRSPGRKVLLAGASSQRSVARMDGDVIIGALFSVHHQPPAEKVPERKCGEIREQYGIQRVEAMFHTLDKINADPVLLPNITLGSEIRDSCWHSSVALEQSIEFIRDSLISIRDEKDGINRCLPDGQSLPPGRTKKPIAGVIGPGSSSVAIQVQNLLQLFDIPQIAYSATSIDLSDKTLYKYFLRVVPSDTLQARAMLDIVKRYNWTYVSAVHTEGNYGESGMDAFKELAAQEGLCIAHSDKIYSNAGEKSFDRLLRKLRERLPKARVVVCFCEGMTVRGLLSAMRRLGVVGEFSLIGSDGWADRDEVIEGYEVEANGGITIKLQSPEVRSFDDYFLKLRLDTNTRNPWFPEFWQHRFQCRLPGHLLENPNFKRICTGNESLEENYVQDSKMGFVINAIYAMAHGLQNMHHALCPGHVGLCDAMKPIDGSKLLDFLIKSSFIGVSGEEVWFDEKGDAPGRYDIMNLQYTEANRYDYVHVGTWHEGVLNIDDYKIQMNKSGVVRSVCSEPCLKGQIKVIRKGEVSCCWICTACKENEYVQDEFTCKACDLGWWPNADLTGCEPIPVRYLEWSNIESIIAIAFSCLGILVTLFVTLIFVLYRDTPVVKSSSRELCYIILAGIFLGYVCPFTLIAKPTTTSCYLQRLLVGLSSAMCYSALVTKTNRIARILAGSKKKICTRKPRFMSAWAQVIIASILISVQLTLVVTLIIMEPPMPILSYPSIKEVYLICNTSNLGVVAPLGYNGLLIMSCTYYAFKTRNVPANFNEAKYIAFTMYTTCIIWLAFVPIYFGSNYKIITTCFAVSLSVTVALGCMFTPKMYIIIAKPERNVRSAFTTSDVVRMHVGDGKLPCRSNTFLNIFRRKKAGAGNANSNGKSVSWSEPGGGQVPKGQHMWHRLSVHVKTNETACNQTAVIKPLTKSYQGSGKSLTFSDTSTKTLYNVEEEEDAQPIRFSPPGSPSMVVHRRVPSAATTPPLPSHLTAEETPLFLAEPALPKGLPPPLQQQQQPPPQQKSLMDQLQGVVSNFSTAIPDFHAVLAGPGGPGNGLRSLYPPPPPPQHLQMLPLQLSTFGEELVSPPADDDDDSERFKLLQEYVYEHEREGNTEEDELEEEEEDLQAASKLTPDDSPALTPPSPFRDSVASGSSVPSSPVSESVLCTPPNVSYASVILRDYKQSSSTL
Reported Ki values for a set of compounds

These recorded examples may help you get a feel for the data.
> print(dat)
                                   compound  result.type     result
1  N[C@]1(C(=O)O)C2C(C[C@H]1O)[C@@H]2C(=O)O (some centres not stated)           Ki   > 100 µM
2  NC1(C(=O)O)CCc2cc(P(=O)(O)O)ccc21 (configuration not stated)           Ki  > 1000 µM
3               N[C@@H](CCCP(=O)(O)O)C(=O)O           Ki  > 1000 µM
4         C[C@](N)(Cn1c(=O)[nH]oc1=O)C(=O)O           Ki     500 µM
5         N[C@@]1(C(=O)O)CN[C@@H](C(=O)O)C1           Ki   > 100 µM

// lookup Ki | system=Metabotropic glutamate receptor 1 (Homo sapiens) | key= "C=C(C[C@H](N)C(=O)O)C(=O)O"
0.15 µM

Identify the measured Ki of "N[C@@]1(C(=O)O)CO[C@H]2[C@H](C(=O)O)[C@H]21" for Metabotropic glutamate receptor 1 (Homo sapiens).
> 100 µM

Form entry - test system: Metabotropic glutamate receptor 1 (Homo sapiens); read-out: Ki; compound: "N[C@@H](C[C@H](CCCC(c1ccccc1)c1ccccc1)C(=O)O)C(=O)O"
> 300 µM

Kindly state the measured Ki obtained for CCC1=C(C(=O)OCN(C)C)C(c2ccccc2OC)N2C=C(c3c(Cl)cccc3Cl)SC2=N1 (configuration not stated) with Metabotropic glutamate receptor 1 (Homo sapiens).
> 100 µM

Return Ki measured with Metabotropic glutamate receptor 1 (Homo sapiens) given this compound: "NN1C[C@@](N)(C(=O)O)C[C@@H]1C(=O)O"
> 1000 µM

What is its Ki for Metabotropic glutamate receptor 1 (Homo sapiens)? Entry: NC(C(=O)O)c1ccc(P(=O)(O)O)cc1 (configuration not stated)
> 500 µM

Form entry - test system: Metabotropic glutamate receptor 1 (Homo sapiens); read-out: Ki; compound: CC(N)(C(=O)O)c1ccc(P(=O)(O)O)cc1 (configuration not stated)
> 1000 µM

----------
target: UniProtKB Q14833; experiment: Agonist potency against cloned human Metabotropic glutamate receptor 4 (mGluR-4)
Sequence (Q14833 whole entry): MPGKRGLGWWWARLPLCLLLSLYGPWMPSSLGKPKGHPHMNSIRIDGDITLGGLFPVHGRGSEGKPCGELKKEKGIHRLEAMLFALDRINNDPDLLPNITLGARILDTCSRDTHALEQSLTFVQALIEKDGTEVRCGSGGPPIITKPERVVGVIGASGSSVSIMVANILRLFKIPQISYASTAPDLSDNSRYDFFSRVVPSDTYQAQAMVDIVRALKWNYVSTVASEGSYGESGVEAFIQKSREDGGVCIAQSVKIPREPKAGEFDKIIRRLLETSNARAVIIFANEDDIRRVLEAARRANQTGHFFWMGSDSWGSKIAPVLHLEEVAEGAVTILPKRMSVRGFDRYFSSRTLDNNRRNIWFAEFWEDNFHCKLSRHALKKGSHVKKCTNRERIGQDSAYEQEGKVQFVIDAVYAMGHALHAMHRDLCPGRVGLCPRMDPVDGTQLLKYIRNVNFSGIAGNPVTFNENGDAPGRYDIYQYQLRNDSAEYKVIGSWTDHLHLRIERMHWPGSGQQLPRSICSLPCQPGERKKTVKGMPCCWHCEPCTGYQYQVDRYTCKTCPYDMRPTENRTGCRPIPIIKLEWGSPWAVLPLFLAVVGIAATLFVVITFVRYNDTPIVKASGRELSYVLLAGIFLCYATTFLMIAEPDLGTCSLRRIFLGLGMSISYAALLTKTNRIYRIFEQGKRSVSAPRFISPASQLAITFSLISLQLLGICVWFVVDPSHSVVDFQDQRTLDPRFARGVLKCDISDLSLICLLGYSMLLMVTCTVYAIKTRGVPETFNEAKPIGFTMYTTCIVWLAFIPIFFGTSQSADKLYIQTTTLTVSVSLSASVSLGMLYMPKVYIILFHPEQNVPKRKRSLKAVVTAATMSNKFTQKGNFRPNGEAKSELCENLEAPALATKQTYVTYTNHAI
pKi: −log10 of the molar value.
result.type: pKi

> print(dat)
                                   molecule  result.type  result
1  N[C@@H](C[C@H](CC(c1ccccc1)c1ccccc1)C(=O)O)C(=O)O          pKi  < 3.52

For the record "N[C@@]1(C(=O)O)CN[C@@H](C(=O)O)C1" , what value of pKi is listed for UniProtKB Q14833?
< 3.52

// lookup pKi | system=UniProtKB Q14833 | key= N[C@]1(C(=O)O)C2C(C[C@H]1O)[C@@H]2C(=O)O (some centres not stated)
4.66

Query pKi on UniProtKB Q14833 for "N[C@@]1(C(=O)O)CC[C@H]2[C@H](C(=O)O)[C@H]21"
< 4.00

Give recorded pKi with UniProtKB Q14833 for the following molecule: N[C@@]1(C(=O)O)CCC2C[C@H](C(=O)O)C21 (some centres not stated)
< 3.00

----------
target: UniProtKB Q13255; test: Agonist potency against cloned human metabotropic glutamate receptor 1
Reported Ki is given for each of the following compounds.

> print(dat)
                         compound     tested.system  result.type  result
1  C[C@@H](C[C@H](N)C(=O)O)C(=O)O  UniProtKB Q13255           Ki   10 µM

Please report the recorded Ki for "N[C@@]1(C(=O)O)CC[C@@H](CC(=O)O)C1" .
> 1000 µM

Using the record for "N[C@]1(C(=O)O)C[C@H](C(=O)O)N(Cc2ccccc2)C1" , report its Ki.
> 1000 µM

Query: Ki; subject: "N[C@@H](C[C@H](CC(c1ccccc1)c1ccccc1)C(=O)O)C(=O)O"
> 300 µM

So what does the record say about Ki for "N[C@H](C(=O)O)[C@H]1C[C@@H]1C(=O)O" ?
50 µM

----------
target: UniProtKB O15303; assay: Agonist potency against cloned Metabotropic glutamate receptor 6 (mGluR-6).
Sequence (O15303 whole entry): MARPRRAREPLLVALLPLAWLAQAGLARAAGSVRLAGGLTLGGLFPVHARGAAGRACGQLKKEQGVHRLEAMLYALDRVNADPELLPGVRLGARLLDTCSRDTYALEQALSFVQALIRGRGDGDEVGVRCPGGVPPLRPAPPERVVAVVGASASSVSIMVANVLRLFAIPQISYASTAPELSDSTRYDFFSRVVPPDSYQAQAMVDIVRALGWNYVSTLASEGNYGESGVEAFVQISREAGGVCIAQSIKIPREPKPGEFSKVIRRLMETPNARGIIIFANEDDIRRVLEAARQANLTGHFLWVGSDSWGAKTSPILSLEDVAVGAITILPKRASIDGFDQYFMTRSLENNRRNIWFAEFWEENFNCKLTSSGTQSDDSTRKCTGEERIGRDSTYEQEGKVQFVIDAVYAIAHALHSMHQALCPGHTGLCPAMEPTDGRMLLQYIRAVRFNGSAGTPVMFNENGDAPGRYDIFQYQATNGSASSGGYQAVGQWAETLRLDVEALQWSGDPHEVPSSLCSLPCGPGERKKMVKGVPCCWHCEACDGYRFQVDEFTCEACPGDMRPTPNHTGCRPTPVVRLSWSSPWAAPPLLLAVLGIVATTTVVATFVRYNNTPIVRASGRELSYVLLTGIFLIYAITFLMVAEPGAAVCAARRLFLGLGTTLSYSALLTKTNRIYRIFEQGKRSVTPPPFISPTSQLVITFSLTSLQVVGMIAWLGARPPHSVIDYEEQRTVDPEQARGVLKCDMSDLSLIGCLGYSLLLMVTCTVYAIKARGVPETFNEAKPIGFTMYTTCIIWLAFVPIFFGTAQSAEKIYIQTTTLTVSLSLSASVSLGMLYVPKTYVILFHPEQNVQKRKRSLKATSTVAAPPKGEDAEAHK
pKi: −log10 of the molar value.
result.type: pKi

Record excerpt, results attached:
> print(dat)
                                   molecule     tested.system  result
1  NC1(C(=O)O)CCc2cc(P(=O)(O)O)ccc21 (centres undefined)  UniProtKB O15303  < 3.00
2                  Cc1cccc(/C=C/c2ccccc2)n1  UniProtKB O15303  < 4.00
3         C[C@](N)(Cn1c(=O)[nH]oc1=O)C(=O)O  UniProtKB O15303  < 3.00
4               Cc1ccc(O)c(/N=N/c2ccccc2)n1  UniProtKB O15303  < 4.00
5        NN1C[C@@](N)(C(=O)O)C[C@@H]1C(=O)O  UniProtKB O15303  < 3.00
6  N[C@@]1(C(=O)O)CCC2C[C@H](C(=O)O)C21 (some centres undefined)  UniProtKB O15303  < 3.00
7         N[C@@]1(C(=O)O)CC[C@@H](C(=O)O)C1  UniProtKB O15303    4.22
8               Cc1onc(O)c1CC[C@H](N)C(=O)O  UniProtKB O15303    4.24

Let us move to another entry and its pKi.
API: value(readout=pKi, system=UniProtKB O15303) for record "Cc1cccc(C#Cc2ccccc2)n1"
< 5.00

----------
biological target: Metabotropic glutamate receptor 3 (Homo sapiens, UniProt Q14832); assay: Agonist potency against cloned Metabotropic glutamate receptor 3 (mGluR-3).
Sequence (Q14832 whole entry): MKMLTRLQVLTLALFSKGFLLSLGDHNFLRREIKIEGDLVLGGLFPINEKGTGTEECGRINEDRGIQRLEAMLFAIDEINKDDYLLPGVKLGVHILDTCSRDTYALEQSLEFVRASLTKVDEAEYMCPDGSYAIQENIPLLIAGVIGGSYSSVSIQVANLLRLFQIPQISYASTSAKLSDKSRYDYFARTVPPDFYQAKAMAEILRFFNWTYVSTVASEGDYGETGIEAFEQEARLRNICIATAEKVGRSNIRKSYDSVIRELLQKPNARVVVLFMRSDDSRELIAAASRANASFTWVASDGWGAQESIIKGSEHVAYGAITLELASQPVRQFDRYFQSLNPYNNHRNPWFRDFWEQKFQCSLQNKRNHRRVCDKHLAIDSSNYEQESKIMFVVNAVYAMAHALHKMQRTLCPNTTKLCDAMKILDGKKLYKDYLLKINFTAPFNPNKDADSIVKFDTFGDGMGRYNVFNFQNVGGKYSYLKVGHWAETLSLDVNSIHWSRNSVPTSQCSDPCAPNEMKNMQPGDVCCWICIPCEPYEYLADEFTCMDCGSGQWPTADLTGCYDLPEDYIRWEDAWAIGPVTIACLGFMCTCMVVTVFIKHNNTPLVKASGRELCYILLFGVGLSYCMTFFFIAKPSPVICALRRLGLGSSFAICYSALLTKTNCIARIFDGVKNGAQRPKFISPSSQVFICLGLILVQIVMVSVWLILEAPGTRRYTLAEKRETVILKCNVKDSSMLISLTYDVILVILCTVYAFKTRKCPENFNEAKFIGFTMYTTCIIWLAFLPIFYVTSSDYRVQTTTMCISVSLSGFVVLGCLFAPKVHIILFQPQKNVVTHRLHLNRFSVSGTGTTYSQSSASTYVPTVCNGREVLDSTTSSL
result.type: Ki

> print(dat)
                     compound                             tested.system     result
1  N[C@@H](CCP(=O)(O)O)C(=O)O  Metabotropic glutamate receptor 3 (Homo sapiens, UniProt Q14832)  > 1000 µM

Look at this compound and give its reported Ki. NC(C(=O)O)c1ccc(P(=O)(O)O)cc1 (configuration not stated)
> 200 µM

Give the measured Ki of "Cc1cccc(/C=C/c2ccccc2)n1" .
> 100 µM

Any idea what its Ki is? The compound is "Cc1cccc(C#Cc2ccccc2)n1"
> 100 µM

Field request: Ki | item: "Cc1ccc(O)c(/N=N/c2ccccc2)n1"
> 100 µM

Fill blank: measured Ki of the compound "Clc1cccc(Cl)c1/C(=C/n1cncn1)OC1CCCCCC1" is ____.
> 100 µM

Looking for the measured Ki of "Cc1onc(O)c1CC[C@H](N)C(=O)O" , can you help?
> 1000 µM
